Data origin, for the record: patent US6376753B1

Below is a list of entries, each paired with its recorded log10 Kcat value.
Biological target: CYP76B1 (Helianthus tuberosus)
Sequence (O23976 1-490): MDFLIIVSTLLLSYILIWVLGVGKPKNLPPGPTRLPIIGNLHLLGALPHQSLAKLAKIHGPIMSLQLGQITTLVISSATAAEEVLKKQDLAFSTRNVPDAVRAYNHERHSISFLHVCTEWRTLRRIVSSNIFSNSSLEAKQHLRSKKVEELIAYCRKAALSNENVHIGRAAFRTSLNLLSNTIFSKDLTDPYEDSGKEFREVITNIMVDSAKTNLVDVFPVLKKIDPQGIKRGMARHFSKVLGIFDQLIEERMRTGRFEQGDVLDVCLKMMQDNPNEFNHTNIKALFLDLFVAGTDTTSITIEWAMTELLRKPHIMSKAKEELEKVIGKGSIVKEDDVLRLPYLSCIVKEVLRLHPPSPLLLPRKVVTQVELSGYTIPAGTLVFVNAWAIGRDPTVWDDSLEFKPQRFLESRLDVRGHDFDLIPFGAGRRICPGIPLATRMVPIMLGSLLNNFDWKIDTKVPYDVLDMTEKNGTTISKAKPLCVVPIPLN
Test: CYP76B1-dependent metabolism (O-/N-dealkylation) in microsomes of transformed yeast
Conditions: coexpressed reductase ATR1 (WAT11)
Heads up, the numbers here are log10 of Kcat in s⁻¹ units.

1) COc1ccc2nc3ccc(=O)cc-3oc2c1 [7-methoxyresorufin]	-0.17
2) Cc1ccc(NC(=O)N(C)C)cc1Cl [Chlortoluron, N-(3-chloro-p-tolyl)-N′,N′-dimethylurea]	1.13
3) CNC(=O)Nc1ccc(C)c(Cl)c1 [monodemethyl-chlortoluron]	-0.12

The value of log10 Kcat measured for the molecule CCOc1ccc2nc3ccc(=O)cc-3oc2c1 [7-ethoxyresorufin] turned out to be -0.33

Query CC(C)c1ccc(NC(=O)N(C)C)cc1 [Isoproturon, N-(4-isopropylphenyl)-N′,N′-dimethylurea] yields log10 Kcat of 0.39

* * *

biological target: UniProt O23976; experiment: CYP76B1-dependent metabolism (O-/N-dealkylation) in microsomes of transformed yeast; conditions: WAT11 strain; for phenylureas first dealkylation
Assign Condition met to entries whose turnover of the dealkylation meets or exceeds 30 min⁻¹; assign Condition not met to the rest.

Please review the entries below; each comes with its answer.
1. Cc1ccc(NC(=O)N(C)C)cc1Cl	Condition met
2. CCOc1ccc2nc3ccc(=O)cc-3oc2c1	Condition not met
3. COc1ccc2ccc(=O)oc2c1	Condition met
4. COc1ccc2nc3ccc(=O)cc-3oc2c1	Condition met

Next, consider the following compound.
Problem: Please indicate if the recorded turnover of the dealkylation for CC(C)c1ccc(NC(=O)N(C)C)cc1 meets or exceeds 30 min⁻¹.
Result: Condition met

* * *

Each item that follows carries a reported log10(Activity).
biological target: CYP76B1 (Helianthus tuberosus, UniProt O23976); experiment: CYP76B1-dependent metabolism (O-/N-dealkylation) in microsomes of transformed yeast; conditions: WAT11 strain, + NADPH
Hey, these are logged values: log10 of Activity, pkat mg-1 protein being the unit before logging.

log10(Activity) reported for this molecule COc1ccc2ccc(=O)oc2c1 : 1.21

Summary for this molecule, CCOc1ccc2nc3ccc(=O)cc-3oc2c1 : log10(Activity) is 1.06

// CC(C)c1ccc(NC(=O)N(C)C)cc1 : log10(Activity) value = 2.68

For this molecule ( COc1ccc2nc3ccc(=O)cc-3oc2c1 ), measured log10(Activity) is 1.27

Per the record, Cc1ccc(NC(=O)N(C)C)cc1Cl has log10(Activity) of 3.63

Recorded log10(Activity) (molecule CCOc1ccc2ccc(=O)oc2c1 ): 1.20

* * *

Biological target: UniProt O23976
Sequence (O23976 1-490): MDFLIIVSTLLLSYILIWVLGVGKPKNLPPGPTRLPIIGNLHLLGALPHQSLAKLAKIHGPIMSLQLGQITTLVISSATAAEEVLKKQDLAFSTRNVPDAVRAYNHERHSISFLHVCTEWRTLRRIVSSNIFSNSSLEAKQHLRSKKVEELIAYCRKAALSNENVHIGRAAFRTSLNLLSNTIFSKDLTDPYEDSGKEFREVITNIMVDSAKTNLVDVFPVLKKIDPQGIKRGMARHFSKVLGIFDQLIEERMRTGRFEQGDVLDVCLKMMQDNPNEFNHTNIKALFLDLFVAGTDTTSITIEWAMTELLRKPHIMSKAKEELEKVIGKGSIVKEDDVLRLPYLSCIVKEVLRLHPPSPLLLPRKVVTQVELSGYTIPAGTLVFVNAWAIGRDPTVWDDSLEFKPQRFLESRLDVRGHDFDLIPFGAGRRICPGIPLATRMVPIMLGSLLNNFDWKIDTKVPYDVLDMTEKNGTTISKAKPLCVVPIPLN
Assay: CYP76B1-dependent metabolism (O-/N-dealkylation) in microsomes of transformed yeast
Settings: W(R) strain; for phenylureas first dealkylation
Measured turnover of the dealkylation values are reported for all entries that follow.
The answer is to be given in min⁻¹; state only the numeric part.

Examples with answers:
1) COc1ccc2ccc(=O)oc2c1	13
2) CCOc1ccc2nc3ccc(=O)cc-3oc2c1	6
3) CCOc1ccc2ccc(=O)oc2c1	10

# turnover of the dealkylation measured on UniProt O23976 for item CC(C)c1ccc(NC(=O)N(C)C)cc1 = 40

Known value: UniProt O23976 turnover of the dealkylation of the compound COc1ccc2nc3ccc(=O)cc-3oc2c1 equals 15

* * *

target: CYP76B1 (Helianthus tuberosus); test: biochemical
# maps each entry to its log10(Kd)
Log10 applied to Kd; unit prior to transform: µM.

In the examples that follow, each entry is paired with its recorded log10(Kd).
1) CON(C)C(=O)Nc1ccc(Cl)cc1 [Monolinuron]	0.68
2) CN(C)C(=O)Nc1ccc(Cl)c(Cl)c1 [Diuron]	1.30
3) Cc1ccc(NC(=O)N(C)C)cc1Cl [Chlortoluron, N-(3-chloro-p-tolyl)-N′,N′-dimethylurea]	1.38

Reported log10(Kd) of CC(C)c1ccc(NC(=O)N(C)C)cc1 [Isoproturon, N-(4-isopropylphenyl)-N′,N′-dimethylurea] : 1.74

# log10(Kd) of CON(C)C(=O)Nc1ccc(Br)c(Cl)c1 [Chlorbromuron] = 0.72

* * *

Molecular target: CYP76B1 (Helianthus tuberosus)
Sequence (O23976 1-490): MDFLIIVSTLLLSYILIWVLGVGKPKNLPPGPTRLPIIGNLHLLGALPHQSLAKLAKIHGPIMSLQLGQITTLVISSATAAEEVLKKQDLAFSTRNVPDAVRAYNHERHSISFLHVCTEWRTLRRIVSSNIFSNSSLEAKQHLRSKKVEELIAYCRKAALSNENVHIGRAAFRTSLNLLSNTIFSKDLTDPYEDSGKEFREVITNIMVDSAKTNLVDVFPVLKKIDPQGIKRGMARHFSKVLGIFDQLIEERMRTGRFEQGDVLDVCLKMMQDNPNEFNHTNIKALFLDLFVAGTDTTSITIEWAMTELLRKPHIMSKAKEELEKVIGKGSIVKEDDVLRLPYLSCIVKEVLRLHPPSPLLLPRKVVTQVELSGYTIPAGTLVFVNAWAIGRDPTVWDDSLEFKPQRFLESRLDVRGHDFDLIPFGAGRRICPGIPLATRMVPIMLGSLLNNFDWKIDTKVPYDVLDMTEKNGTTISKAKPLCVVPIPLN
Test: CYP76B1-dependent metabolism (O-/N-dealkylation) in microsomes of transformed yeast
Conditions: W(R) strain, + NADPH
Reported Property: log10 of Activity (log10 of the value in pkat mg-1 protein)
The figures below represent log10 of Activity, where Activity is stated in pkat mg-1 protein.

1. CCOc1ccc2nc3ccc(=O)cc-3oc2c1	0.71
2. Cc1ccc(NC(=O)N(C)C)cc1Cl	3.09

// field: log10 of Activity; key: CC(C)c1ccc(NC(=O)N(C)C)cc1 ; value = 2.11

// COc1ccc2nc3ccc(=O)cc-3oc2c1 : log10 of Activity value = 1.10

Record summary for CCOc1ccc2ccc(=O)oc2c1 : reported log10 of Activity = 0.92

Recorded result, COc1ccc2ccc(=O)oc2c1 , log10 of Activity: 1.04

* * *

target: CYP76B1 (Helianthus tuberosus); assay: biochemical; settings: read-out: KS (apparent dissociation constant); CYP76B1 60 nM; ΔA(390-420 nm) double-reciprocal plots
Reported Property: Kd (µM)
Answer in µM, number only, no unit symbol.

Record CON(C)C(=O)Nc1ccc(Br)cc1 . Reported Kd: 6.2

* * *

Target: CYP76B1 (Helianthus tuberosus)
Sequence (O23976 1-490): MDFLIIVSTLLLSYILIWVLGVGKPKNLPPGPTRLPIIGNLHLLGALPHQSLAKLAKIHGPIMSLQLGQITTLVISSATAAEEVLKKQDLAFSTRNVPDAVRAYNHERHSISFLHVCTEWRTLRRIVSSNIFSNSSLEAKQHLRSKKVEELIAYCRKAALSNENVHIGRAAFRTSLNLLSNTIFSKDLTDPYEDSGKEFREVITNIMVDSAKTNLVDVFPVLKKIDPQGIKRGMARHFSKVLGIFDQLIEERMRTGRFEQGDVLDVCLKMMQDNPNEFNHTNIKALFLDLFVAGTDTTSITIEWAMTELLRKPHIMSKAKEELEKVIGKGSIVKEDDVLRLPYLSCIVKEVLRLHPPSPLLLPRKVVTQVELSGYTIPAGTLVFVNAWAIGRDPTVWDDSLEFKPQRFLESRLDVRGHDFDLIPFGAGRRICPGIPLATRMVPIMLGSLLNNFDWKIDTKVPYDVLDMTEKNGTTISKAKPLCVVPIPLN
Assay: CYP76B1-dependent metabolism (O-/N-dealkylation) in microsomes of transformed yeast
Conditions: transformed WAT11 yeast microsomes
Reported Property: metabolite detection for endogenous molecules

1. CCCCCCCCCCCCCCCC(=O)O	No metabolite
2. O=C(O)/C=C/c1ccccc1 [cinnamate, trans-Cinnamic acid]	No metabolite
3. CCCCC/C=C\C/C=C\CCCCCCCC(=O)O	No metabolite
4. CCCCCCCC/C=C\CCCCCCCC(=O)O	No metabolite
5. COc1cc2ccc(=O)oc2cc1O	No metabolite

Noted for CCCCCCCCCCCCCC(=O)O : its metabolite detection for endogenous molecules reads No metabolite

Form: compound = O=C(O)c1ccccc1 [benzoate, Benzoic acid] ; metabolite detection for endogenous molecules = No metabolite

Per the record, CC1=CC(=O)CC(C)(C)C1(O)/C=C/C(C)=C\C(=O)O (stereo not drawn) [abcisic acid] has metabolite detection for endogenous molecules of No metabolite

// sample CCCCCCCCCCCC(=O)O , its metabolite detection for endogenous molecules was No metabolite

metabolite detection for endogenous molecules recorded for this compound, CC/C=C\C/C=C\C/C=C\CCCCCCCC(=O)O , is No metabolite

Record O=C1C[C@@H](c2ccc(O)cc2)Oc2cc(O)cc(O)c21 , field metabolite detection for endogenous molecules: No metabolite

Record COc1cc2oc(=O)ccc2cc1O , field metabolite detection for endogenous molecules: No metabolite

Reported metabolite detection for endogenous molecules ( C=C(CC[C@@H](C)[C@H]1CC[C@@]2(C)C3=C(CC[C@]12C)[C@@]1(C)CC[C@H](O)[C@@H](C)[C@@H]1CC3)C(C)C ) = No metabolite

Input CCCCCCCCCC(=O)O . Output metabolite detection for endogenous molecules: No metabolite

Briefly, metabolite detection for endogenous molecules measured for COc1cc(/C=C/C(=O)O)ccc1O [ferulate, ferulic acid] : No metabolite
